The measured values listed here are drawn from ChEMBL document CHEMBL5724801.

Population Pyknosed Nuclei (%) values, listed per item
Test system: Fibroblast
EXPERIMENT DESCRIPTION: Multiplex assay against human fibroblast
Type: toxicity, cell-based
CONDITION DESCRIPTION: 24 h, 1 µM, compound concentration 1 uM

Record excerpt, results attached:
Cc1c(Cc2ccc3ccccc3n2)c2cc(F)ccc2n1CC(=O)O [TIMAPIPRANT]: 17%
CCCCCC(O)/C=C/[C@H]1C(=O)CC(O)C1C/C=C\CCCC(=O)O (stereo not given in full): 8%
CN1CCN(c2ccc(Nc3c4ccccc4nc4ccccc34)cc2)CC1.Cl.Cl.O: 12%

Incoming: Lab request: please report Population Pyknosed Nuclei (%) under test system Fibroblast for COc1cc2nc(N3CCN(C(=O)COc4c(OC)cccc4C(C)C)CC3)nc(N)c2cc1OC.Cl.Cl
Outgoing: 17%

Incoming: What measured Population Pyknosed Nuclei (%) is associated with CN(C)C(=O)Cn1cc(-c2ccc(-c3nnc4ccccn34)cc2)cn1 on Fibroblast?
Outgoing: 16%

###

Tested on: U2OS
EXPERIMENT DESCRIPTION: Multiplex assay against U2OS
Format: toxicity, cell-based
CONDITION DESCRIPTION: human, 12 h, 1 µM, compound concentration 1 uM
MEASURED QUANTITY: Population Normal (%)
The reply should be a number in %, with the unit left off.

// solved cases for Population Normal (%) follow
O=C(Nc1cc(C(F)(F)F)ccc1N1CCCCC1)c1ccncc1: 100
Cc1ccc(-c2ccc(F)cc2COc2ccc(CCC(=O)O)cc2)cc1: 97
COC(=O)c1ccc2c(c1)NC(=O)/C2=C(\Nc1ccc(N(C)C(=O)CN2CCN(C)CC2)cc1)c1ccccc1: 100
CN(C)CCCn1cc(C2=C(c3c[nH]c4ccccc34)C(=O)NC2=O)c2ccccc21: 100
Cc1[nH]nc2ccc(-c3cncc(OCC(N)Cc4c[nH]c5ccccc45)c3)cc12 (stereo not drawn): 100
Cc1cc(NC(=O)c2cccc(NC(=O)/C=C/CN(C)C)c2)ccc1Nc1nccc(-c2cccnc2)n1: 100

Incoming: Tell me the measured Population Normal (%) of CN1C[C@H](C(=O)N[C@]2(C)O[C@@]3(O)[C@@H]4CCCN4C(=O)[C@H](Cc4ccccc4)N3C2=O)C[C@@H]2c3cccc4[nH]cc(c34)C[C@H]21.CS(=O)(=O)O [DIHYDROERGOTAMINE MESYLATE] , please.
Outgoing: 98

Incoming: Need Population Normal (%) of Cc1c(CC(=O)O)c2cccnc2n1Cc1ccc(S(C)(=O)=O)cc1C(F)(F)F , thanks.
Outgoing: 98

###

Tested on: HEK-293T
EXPERIMENT DESCRIPTION: Multiplex assay against HEK293T
Assay type: toxicity, cell-based
CONDITION DESCRIPTION: human, 24 h, 10 µM, compound concentration 10 uM
MEASURED QUANTITY: Population Hoechst High Intensity Objects (%)
Field format: number, assumed %, no unit text.

O=C(NCCN1CCC(n2c(=O)[nH]c3cc(Cl)ccc32)CC1)c1ccc(F)cc1 [HALOPEMIDE]: 8
COCCNc1cc(NC(=O)N2CCCc3cc(CN4CCN(C)CC4=O)c(C=O)nc32)ncc1C#N: 0
NCCc1cn(S(=O)(=O)c2c(Cl)nc3sccn23)c2ccccc12.O=C(O)C(=O)O: 34
Cc1nn(C)c2nc(NNC(=O)Nc3cc(Cl)nc(Cl)c3)cc(C(C)C)c12: 5
Cc1cc(C)cc(C(=O)NOCCCCCC(=O)NO)c1: 0

Incoming: So what Population Hoechst High Intensity Objects (%) did CC(C)(O)c1cnc(N2C[C@@]3(CCC[C@](C)(Cn4cnc5ccc(C#N)cc54)C3)OC2=O)cn1 get with HEK-293T?
Outgoing: 0

Incoming: State its Population Hoechst High Intensity Objects (%) on HEK-293T: CN(C)CCCn1cc(C2=C(c3c[nH]c4ccccc34)C(=O)NC2=O)c2ccccc21
Outgoing: 0

Incoming: Item C[C@H](C[C@H](N)C(=O)O)C(=O)O [2S,4R-4-METHYLGLUTAMATE] with HEK-293T - Population Hoechst High Intensity Objects (%)?
Outgoing: 0

Incoming: Tell me reported Population Hoechst High Intensity Objects (%) for Cc1cc(Nc2ncc(Cl)c(Nc3ccccc3S(=O)(=O)C(C)C)n2)c(OC(C)C)cc1C1CCNCC1 , tested with HEK-293T.
Outgoing: 0

Incoming: Missing value: Population Hoechst High Intensity Objects (%), HEK-293T, entry COc1cccc2c1c(NS(=O)(=O)c1ccc(Cl)s1)nn2Cc1cccc(CNC(=O)C(C)(C)O)c1 . Fill in?
Outgoing: 5

Incoming: Missing value: Population Hoechst High Intensity Objects (%), HEK-293T, entry CN(C)Cc1cccc(NC(=C2C(=O)Nc3cc(C(=O)N(C)C)ccc32)c2ccccc2)c1 . Fill in?
Outgoing: 0

Incoming: Query for HEK-293T: what Population Hoechst High Intensity Objects (%) does the record show for Cc1cc(C)c(NC(=O)C2CC3CCC2C3)c(C)c1 (centres undefined) ?
Outgoing: 0

Incoming: Request body: readout Population Hoechst High Intensity Objects (%), system HEK-293T, query Cc1ccc(-c2ccc(F)cc2COc2ccc(CCC(=O)O)cc2)cc1 . Return the value.
Outgoing: 3

Incoming: What measured Population Hoechst High Intensity Objects (%) is associated with CC(=O)NCC(=O)N1[C@@H]2CC[C@H]1c1ccc(Nc3ncc(C(F)(F)F)c(NC4CCC4)n3)cc12 on HEK-293T?
Outgoing: 0

###

Test system: U2OS
EXPERIMENT DESCRIPTION: Multiplex assay against U2OS
Type: toxicity, cell-based
CONDITION DESCRIPTION: human, 24 h, 1 µM, compound concentration 1 uM
The label is 1 for Population Pyknosed Nuclei (%) below 9% and 0 for Population Pyknosed Nuclei (%) equal to or exceeding 9%.

Incoming: Problem: For the compound Cc1c(Cc2ccc3ccccc3n2)c2cc(F)ccc2n1CC(=O)O , is Population Pyknosed Nuclei (%) under 9%?
Outgoing: 1

Incoming: Is it true that Population Pyknosed Nuclei (%) reported for CCCCCC(O)/C=C/[C@H]1C(=O)CC(O)C1C/C=C\CCCC(=O)O (some centres not stated) is less than 9%?
Outgoing: 1

Incoming: Hi there! Is Population Pyknosed Nuclei (%) for CN(C)C/C=C/C(=O)Nc1ccc(C(=O)N2CCCC(Nc3ncc(Cl)c(-c4c[nH]c5ccccc45)n3)C2)cc1 (configuration not stated) below 9%, do you know?
Outgoing: 0

Incoming: Regarding Cc1c(CC(=O)O)c2cccnc2n1Cc1ccc(S(C)(=O)=O)cc1C(F)(F)F , kindly confirm whether its Population Pyknosed Nuclei (%) is beneath 9%.
Outgoing: 1

Incoming: Does the reported Population Pyknosed Nuclei (%) of the following compound sit strictly below 9%? CC(/C=C1\SC(=S)N(CCCC(=O)Nc2ccc(C(=O)O)c(O)c2)C1=O)=C\c1ccccc1
Outgoing: 0

###

The compounds listed here are annotated with their Population Pyknosed Nuclei (%).
Test system: Fibroblast
EXPERIMENT DESCRIPTION: Multiplex assay against human fibroblast
Format: toxicity, cell-based
CONDITION DESCRIPTION: 48 h, 10 µM, compound concentration 10 uM
Write it as a number; the unit % goes unstated.

Solved entries:
Cc1c(CC(=O)O)c2cccnc2n1Cc1ccc(S(C)(=O)=O)cc1C(F)(F)F [FEVIPIPRANT]: 14
CCOc1c2c(c(OCC)c3ncccc13)CN(c1ccc(CS(=O)(=O)NC(=O)Cc3ccccc3OC)cc1C)C2=O: 20
CN1CCN(c2nc3cc(C(F)(F)F)ccc3n3cccc23)CC1.O=C(O)/C=C\C(=O)O.O=C(O)/C=C\C(=O)O: 9

Incoming: Param item = CCCCCC(O)/C=C/[C@H]1C(=O)CC(O)C1C/C=C\CCCC(=O)O (some centres undefined) ; retrieve measured Population Pyknosed Nuclei (%).
Outgoing: 8

###

Tested on: HEK-293T
EXPERIMENT DESCRIPTION: Multiplex assay against HEK293T
Assay type: toxicity, cell-based
CONDITION DESCRIPTION: human, 12 h, 10 µM, compound concentration 10 uM
// Population Normal (%) lookup, one value per entry
Dear colleague, please return just the value in %, with no unit written.

COCCNc1cc(NC(=O)N2CCCc3cc(CN4CCN(C)CC4=O)c(C=O)nc32)ncc1C#N [FGF401]: 100
COc1cc(/C=C(\C#N)C(=O)Nc2nnc(C(F)(F)F)s2)ccc1OCc1ccc(C(F)(F)F)cc1C(F)(F)F: 100

Incoming: API: value(readout= Population Normal (%), system= HEK-293T, query= C[C@H](C[C@H](N)C(=O)O)C(=O)O [2S,4R-4-METHYLGLUTAMATE] )
Outgoing: 100

Incoming: // map O=C(NCc1cccc(O)c1)Nc1nc(-c2ccncc2)cs1 to recorded Population Normal (%) (system: HEK-293T)
Outgoing: 100

Incoming: Under HEK-293T: Population Normal (%) value of Cn1ncnc1COc1nn2c(-c3cc(F)ccc3F)nnc2cc1C(C)(C)C ?
Outgoing: 100

Incoming: Query the reported Population Normal (%) for HEK-293T; item: CC(/C=C1\SC(=S)N(CCCC(=O)Nc2ccc(C(=O)O)c(O)c2)C1=O)=C\c1ccccc1
Outgoing: 92
